- measured on: T1, SIRT2 catalytic domain (human, amino acids 34-356), 6xHis-SUMO tag removed (human, UniProt Q8IXJ6 34-356)
- T1 construct: human SIRT2 catalytic domain, amino acids 34-356; also called sirtuin-2; source: tag removed, chromatographically purified; not shown: His6, N-terminal, cleaved; SUMO, N-terminal, cleaved
- T1 sequence (looked up): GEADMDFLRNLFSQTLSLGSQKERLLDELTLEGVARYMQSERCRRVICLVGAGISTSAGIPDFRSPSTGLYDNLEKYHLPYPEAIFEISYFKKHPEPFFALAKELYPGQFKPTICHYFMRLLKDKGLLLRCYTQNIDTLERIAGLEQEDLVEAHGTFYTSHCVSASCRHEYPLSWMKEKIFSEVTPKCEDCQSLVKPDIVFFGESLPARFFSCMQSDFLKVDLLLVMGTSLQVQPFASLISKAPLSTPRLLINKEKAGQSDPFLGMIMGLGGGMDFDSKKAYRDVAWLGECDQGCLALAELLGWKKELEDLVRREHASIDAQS
- method notes: ITC; PBS, 25°C; 20 uM SIRT2 in the cell, 200 uM peptide in the syringe; one site binding model
- condition info: both partners purified
Ends that are not written are not given here. * marks the point of attachment. Myristoyl = CCCCCCCCCCCCCC(=O)*
reported property: Kd (nM)

KGLGKGGAK(Myristoyl)RHRK	13
